# system.under.test: Human L1CAM (purified protein) (human) (UniProt P32004)
# assay.notes: competitive ELISA; antibody pre-incubated with soluble human L1CAM, free antibody detected on coated human L1CAM
quantity: Affinity (K) (pM)
Numeric only. Scale: pM

binder	readout.unit	Affinity (K)
Ab4H6 antibody (antibody, human IgG1, kappa, V domains shown, Whole human IgG1, kappa; also called Anti-L1CAM ("Ab4H6"); Ab4H6 mutant) VH: EVQLVESGGGVVQPGGSLRLSCAASGFTFSRFGMHWVRQAPGKGLEWVAFISNEGSNKYYADSVKGRFTISRDNSANTLYLQMNSLRAEDTAVYYCARGRAYGSGSLFDPWGQGTLVTVSS VL: DIQLTQSPSSLSASVGDRVTITCRASRTISSYVNWYRQRPGKAPESLIYAASNLHSGVPSRFSGSGSGTDFTLTISSLQPEDFATYYCQQSLHFYPWTFGQGTKLEIKR	pM	60
Ab2C2 antibody (antibody, human IgG1, kappa, V domains shown, Whole human IgG1, kappa; also called Anti-L1CAM ("Ab2C2"); Ab2C2 mutant) VH: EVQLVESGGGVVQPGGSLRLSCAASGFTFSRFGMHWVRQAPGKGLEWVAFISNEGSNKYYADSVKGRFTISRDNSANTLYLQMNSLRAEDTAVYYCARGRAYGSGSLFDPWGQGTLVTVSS VL: DIQLTQSPSSLSASVGDRVTITCRASRTISSYVNWYRQRPGKAPESLIYAASNLHSGVPSRFSGSGSGTDFTLTISSLQPEDFATYYCQQAGFYSPWTFGQGTKLEIKR	pM	50
Ab612 antibody (antibody, human IgG1, kappa, V domains shown, Whole human IgG1, kappa, purified on protein A; also called Anti-L1CAM ("Ab612")) VH: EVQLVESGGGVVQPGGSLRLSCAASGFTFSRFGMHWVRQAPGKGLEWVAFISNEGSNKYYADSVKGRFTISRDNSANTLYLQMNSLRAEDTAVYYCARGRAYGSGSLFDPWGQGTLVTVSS VL: DIQLTQSPSSLSASVGDRVTITCRASRTISSYVNWYRQRPGKAPESLIYAASNLHSGVPSRFSGSGSGTDFTLTISSLQPEDFATYYCQQSIGRGPVTFGQGTKLEIKR	pM	260

Turning now to a further binder:
Fill blank: measured Affinity (K) of the binder Ab4H5 antibody (antibody, human IgG1, kappa, V domains shown, Whole human IgG1, kappa; also called Anti-L1CAM ("Ab4H5"); Ab4H5 mutant) VH: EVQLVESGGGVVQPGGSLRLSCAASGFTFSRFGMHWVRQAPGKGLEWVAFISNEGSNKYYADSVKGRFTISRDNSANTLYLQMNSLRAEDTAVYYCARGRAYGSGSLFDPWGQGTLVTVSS VL: DIQLTQSPSSLSASVGDRVTITCRASRTISSYVNWYRQRPGKAPESLIYAASNLHSGVPSRFSGSGSGTDFTLTISSLQPEDFATYYCQQAGFYTPWTFGQGTKLEIKR is ____.
60
